Experiment: pKa determination via potentiometric analysis
Assay type: physicochemical
Settings: methanol/aqueous solution of ionic strength 0.02 M; Mean (±S.D.), potentiometric titration, triplicate; read-out: pKa1

>  <chemical.structure>
CC(C)(Oc1ccc(Cl)cc1)C(=O)Nc1nnn[nH]1

>  <pKa>
4.43

$$$$

====

Assay: Bioavailability / pharmacokinetic study, oral and intravenous administration
Format: in vivo, Wistar rats
Conditions: male, Wistar, rat, plasma, po, 50 mg/kg, Compound 1, oral, 50 mg/kg, Wistar rat, mean; read-out: T1/2el (converted)

>  <chemical.structure>
CC(C)(Oc1ccc(Cl)cc1)C(=O)Nc1nnn[nH]1

>  <half-life>
~22.8 min

$$$$

====

Assay: Bioavailability / pharmacokinetic study, oral and intravenous administration
Assay type: in vivo, Wistar rats
Details: male, plasma; Compound 1, oral, 50 mg/kg, Wistar rat, mean

>  <chemical.structure>
CC(C)(Oc1ccc(Cl)cc1)C(=O)Nc1nnn[nH]1

>  <k el [s⁻¹]>
0.000503

$$$$
